Reported EC50 values are given for each entry in this list.
biological target: T1, monkey IGF-1R (on COS-7 cells) (African green monkey); assay: FACS titration, Cos-7
T1 construct: whole, on cells
Kindly provide the numeric value in nM only, without the unit symbol.

{"BINDER": "hz208F2 H052/L021 (antibody, human IgG1, kappa, V domains shown, humanized 208F2 variant) VH: QVQLVQSGAEVKKPGASVKVSCKASGYTFTSYYMHWVRQAPGQGLEWMGWIWPGDGSTKYAQKFQGRVTMTRDTSTSTVYMELSSLRSEDTAVYFCASPMITPNYAMDYWGQGTLVTVSS VL: DIQMTQSPSSLSASVGDRVTITCRASQDISKYLNWYQQKPGKAPKLLIYYTSRLHSGVPSRFSGRGSGTDFSLTISSLQPEDFATYFCQQGSTLPYTFGGGTKVEIKR", "UNIT": "nM", "EC50": 1.2}

Now let's try a different one.
Please give the documented EC50 of hz208F2 H051/L018 (antibody, human IgG1, kappa, V domains shown, humanized 208F2 variant) VH: QVQLVQSGAEVKKPGASVKVSCKASGYTFTSYYMHWVRQAPGQGLEWMGWIWPGDGSTKYAQKFQGRVTMTRDTSSNTVYMELSSLRSEDTAVYFCASPMITPNYAMDYWGQGTLVTVSS VL: DIQMTQSPSSLSASVGDRVTITCRASQDISKYLNWYQQKPGKAPKLLIYYTSRLQSGVPSRFSGRGSGTDYSLTISSLQPEDFATYFCQQGSTLPYTFGGGTKVEIKR
0.72
